Quick list: pIC50 per entry.
Biological target: EGFR (Human), P00533 [Assessment of EGFR-Del T790M Dependent Cell Proliferation in BaF3 Cells]
Sequence (P00533 whole entry, looked up, stated change not applied): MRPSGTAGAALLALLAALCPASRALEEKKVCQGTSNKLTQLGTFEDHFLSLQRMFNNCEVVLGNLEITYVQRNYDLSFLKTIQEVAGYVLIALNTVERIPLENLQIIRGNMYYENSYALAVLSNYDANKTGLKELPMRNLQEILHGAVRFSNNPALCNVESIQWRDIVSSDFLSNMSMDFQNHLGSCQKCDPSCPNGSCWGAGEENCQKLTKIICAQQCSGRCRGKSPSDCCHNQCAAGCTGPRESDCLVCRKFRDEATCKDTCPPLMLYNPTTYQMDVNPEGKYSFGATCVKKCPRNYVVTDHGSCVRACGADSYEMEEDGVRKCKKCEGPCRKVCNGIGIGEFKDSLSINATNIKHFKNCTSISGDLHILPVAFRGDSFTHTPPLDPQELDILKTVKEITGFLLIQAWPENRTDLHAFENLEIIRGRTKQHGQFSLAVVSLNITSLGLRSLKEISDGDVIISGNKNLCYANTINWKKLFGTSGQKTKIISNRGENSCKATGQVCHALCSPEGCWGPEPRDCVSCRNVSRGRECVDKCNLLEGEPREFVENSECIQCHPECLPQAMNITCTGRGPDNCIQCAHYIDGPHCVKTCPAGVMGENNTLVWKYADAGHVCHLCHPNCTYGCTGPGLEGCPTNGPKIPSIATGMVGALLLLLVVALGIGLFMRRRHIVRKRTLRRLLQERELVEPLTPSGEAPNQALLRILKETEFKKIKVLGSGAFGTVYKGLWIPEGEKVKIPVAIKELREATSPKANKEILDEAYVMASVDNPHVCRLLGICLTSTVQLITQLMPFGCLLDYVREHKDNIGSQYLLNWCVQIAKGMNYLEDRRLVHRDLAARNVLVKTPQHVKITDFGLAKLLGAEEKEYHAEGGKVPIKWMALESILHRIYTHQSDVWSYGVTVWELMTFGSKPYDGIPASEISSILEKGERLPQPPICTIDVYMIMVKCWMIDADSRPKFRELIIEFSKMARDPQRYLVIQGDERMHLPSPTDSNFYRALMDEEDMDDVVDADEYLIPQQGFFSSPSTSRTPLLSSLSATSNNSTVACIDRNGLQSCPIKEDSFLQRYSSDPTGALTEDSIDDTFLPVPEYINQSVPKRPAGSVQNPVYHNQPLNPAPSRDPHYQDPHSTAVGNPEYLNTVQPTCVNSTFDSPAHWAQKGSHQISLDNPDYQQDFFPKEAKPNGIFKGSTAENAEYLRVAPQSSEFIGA
pIC50: −log10 of the molar value.

In the examples that follow, each entry is paired with its recorded pIC50.
compound: COc1cc(P(C)(C)=O)ccc1Nc1ncc(Cl)c(Oc2cccc(NC(=O)C#CCN(C)C)c2)n1
pIC50: 6.60 to 7.00

compound: C=CC(=O)Nc1cc(Nc2ncc(Cl)c(Nc3ccccc3P(C)(C)=O)n2)c(OC)cc1OC(COC)CN1CCC1 (stereo not drawn)
pIC50: > 7.30

compound: C=CC(=O)Nc1cc(Nc2ncc(Cl)c(Nc3ccccc3P(C)(C)=O)n2)c(OC)cc1N1CCC(N(C)C)CC1
pIC50: > 7.30

compound: COc1cc(N2CCOCC2)c(NC(=O)C#CCCN2CCCCC2)cc1Nc1ncc(Cl)c(Nc2ccccc2P(C)(C)=O)n1
pIC50: > 7.30

compound: COCC1CCCN1CCC#CC(=O)Nc1cc(Nc2ncc(Cl)c(Nc3ccccc3P(C)(C)=O)n2)c(OC)cc1N1CCOCC1 (stereo not drawn)
pIC50: > 7.30

pIC50 for `C=C(CN1CCNC(=O)C1)C(=O)Nc1ccc(OC)c(Nc2ncc(Cl)c(Nc3ccccc3P(C)(C)=O)n2)c1` is 6.60 to 7.00

Summary for this compound, `C=CC(=O)Nc1ccc(Nc2ncc(Cl)c(Nc3cccc(OCCN4CCCCC4)c3P(C)(C)=O)n2)c(OC)c1` : pIC50 is > 7.30

Note to self: pIC50 recorded for `C=CC(=O)Nc1cc(Nc2ncc(Cl)c(Nc3ccccc3P(C)(C)=O)n2)c(OC)cc1O[C@@H](COC)CN(C)C` was > 7.30

compound `C=CC(=O)Nc1cc(Nc2ncc(Cl)c(Nc3ccccc3P(C)(C)=O)n2)c(OC)cc1OCCCN1CCOCC1` , pIC50 observed: 6.60 to 7.00

====

Target: EGFR (Human), P00533 [T790M/L858R]
Sequence (P00533 whole entry T790M/L858R, looked up): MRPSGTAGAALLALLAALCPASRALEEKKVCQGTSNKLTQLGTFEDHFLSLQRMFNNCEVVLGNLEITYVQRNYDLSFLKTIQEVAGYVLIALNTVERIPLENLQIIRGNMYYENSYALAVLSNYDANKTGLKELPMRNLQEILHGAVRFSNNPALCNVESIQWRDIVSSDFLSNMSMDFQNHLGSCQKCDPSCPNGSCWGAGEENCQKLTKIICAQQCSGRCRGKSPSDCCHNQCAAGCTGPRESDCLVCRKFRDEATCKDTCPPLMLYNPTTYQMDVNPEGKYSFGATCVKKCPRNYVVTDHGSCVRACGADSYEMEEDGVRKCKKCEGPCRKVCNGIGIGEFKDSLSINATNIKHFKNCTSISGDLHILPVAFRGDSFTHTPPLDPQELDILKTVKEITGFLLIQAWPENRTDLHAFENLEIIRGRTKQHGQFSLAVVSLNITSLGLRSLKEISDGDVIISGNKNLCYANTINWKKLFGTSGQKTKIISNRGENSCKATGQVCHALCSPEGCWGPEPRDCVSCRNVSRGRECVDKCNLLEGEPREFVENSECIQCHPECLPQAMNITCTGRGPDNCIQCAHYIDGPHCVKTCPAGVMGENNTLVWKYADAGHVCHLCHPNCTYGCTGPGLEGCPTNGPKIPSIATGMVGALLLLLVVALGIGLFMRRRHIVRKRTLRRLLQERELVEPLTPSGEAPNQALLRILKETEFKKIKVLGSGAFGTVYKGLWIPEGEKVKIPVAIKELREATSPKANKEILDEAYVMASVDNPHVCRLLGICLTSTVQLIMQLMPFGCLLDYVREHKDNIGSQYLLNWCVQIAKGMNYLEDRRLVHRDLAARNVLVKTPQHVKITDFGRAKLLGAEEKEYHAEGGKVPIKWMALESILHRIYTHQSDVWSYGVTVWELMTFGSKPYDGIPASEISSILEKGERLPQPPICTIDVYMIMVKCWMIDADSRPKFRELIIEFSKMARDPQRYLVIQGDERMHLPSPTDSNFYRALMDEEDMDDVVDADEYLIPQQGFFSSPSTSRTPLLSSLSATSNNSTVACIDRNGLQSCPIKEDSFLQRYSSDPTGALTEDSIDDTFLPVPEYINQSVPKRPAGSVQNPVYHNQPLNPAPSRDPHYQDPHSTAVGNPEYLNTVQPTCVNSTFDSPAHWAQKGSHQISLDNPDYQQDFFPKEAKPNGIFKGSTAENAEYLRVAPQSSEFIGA
Conditions: baf3
recorded metric: IC50

compound: COc1cc(N2CCOCC2)c(NC(=O)C#CCCN2CCCCC2)cc1Nc1ncc(Cl)c(Nc2ccccc2P(C)(C)=O)n1
subject of test: EGFR (Human), P00533 [T790M/L858R]
result: < 50 nM
--
compound: COc1cc(N2CCCC2)c(NC(=O)C#CCCN2CCN(C)CC2)cc1Nc1ncc(Cl)c(Nc2ccccc2P(C)(C)=O)n1
subject of test: EGFR (Human), P00533 [T790M/L858R]
result: 101 to 250 nM
--
compound: C=C(CN1CCN(S(C)(=O)=O)CC1)C(=O)Nc1ccc(OC)c(Nc2ncc(Cl)c(Nc3ccccc3P(C)(C)=O)n2)c1
subject of test: EGFR (Human), P00533 [T790M/L858R]
result: < 50 nM
--
compound: C=CC(=O)Nc1cc(Nc2ncc(Cl)c(Nc3ccccc3P(C)(C)=O)n2)c(OC)cc1OC1COC1
subject of test: EGFR (Human), P00533 [T790M/L858R]
result: 50 to 100 nM
--
compound: C=CC(=O)Nc1cc(Nc2ncc(Cl)c(Nc3ccccc3P(C)(C)=O)n2)c(OC)cc1N1CCC(N2CCCC2)C1 (stereo not drawn)
subject of test: EGFR (Human), P00533 [T790M/L858R]
result: < 50 nM

GET /value?item= `COc1cc(F)c(NC(=O)C#CCCN2CCCCC2)cc1Nc1ncc(Cl)c(Nc2ccccc2P(C)(C)=O)n1` &field=IC50 returns < 50 nM

Briefly, IC50 measured for `C=CC(=O)Nc1cc(Nc2ncc(Cl)c(Nc3ccccc3P(C)(C)=O)n2)c(OC)cc1C#CCN(C)CC` : < 50 nM

For `C=CC(=O)Nc1ccc(OC)c(Nc2ncc(Cl)c(Nc3ccc(OCC4CCOCC4)cc3P(C)(C)=O)n2)c1` the compound record lists IC50 as < 50 nM

Noted for `C=CC(=O)Nc1cc(Nc2ncc(Cl)c(Nc3ccccc3P(C)(C)=O)n2)c(OC)cc1OCCN1CCCCC1` : its IC50 reads < 50 nM

The compound listed as `C=CC(=O)Nc1cc(Nc2ncc(Cl)c(Nc3ccccc3P(C)(C)=O)n2)c(OC)cc1C#CCN(C)C1CCCC1` has a reported IC50 of < 50 nM

====

pIC50: −log10 of the molar value.
Dear all, this message contains pIC50 results, target or system EGFR (Human), P00533 [T790M/L858R].

compound: C=CC(=O)Nc1cc(Nc2ncc(Cl)c(Nc3ccccc3P(C)(C)=O)n2)c(OC)cc1N1CCCN(C)CC1
subject of test: EGFR (Human), P00533 [T790M/L858R]
pIC50: > 7.30

compound: C=CC(=O)Nc1cc(Nc2ncc(Cl)c(Nc3ccccc3P(C)(C)=O)n2)c(OC)cc1N1CCC(N2CCCCC2)C1 (stereo not drawn)
subject of test: EGFR (Human), P00533 [T790M/L858R]
pIC50: > 7.30

compound: CCOC(=O)/C=C/C(=O)Nc1ccc(OC)c(Nc2ncc(Cl)c(Nc3ccccc3P(C)(C)=O)n2)c1
subject of test: EGFR (Human), P00533 [T790M/L858R]
pIC50: > 7.30

Field pIC50 (EGFR (Human), P00533 [T790M/L858R]), entry `C=CC(=O)Nc1ccc(Cl)c(Nc2ncc(Cl)c(Nc3ccccc3P(C)(C)=O)n2)c1` : > 7.30

# `C=CC(=O)Nc1cc(Nc2ncc(Cl)c(Nc3ccccc3P(C)(C)=O)n2)c(OC)cc1N1CC(N2CCCC2)C1` with EGFR (Human), P00533 [T790M/L858R]: pIC50 is > 7.30

The compound `C=C(CN1CCCCC1)C(=O)Nc1ccc(OC)c(Nc2ncc(Cl)c(Nc3ccccc3P(C)(C)=O)n2)c1` , when measured on EGFR (Human), P00533 [T790M/L858R], yielded pIC50 of > 7.30

EGFR (Human), P00533 [T790M/L858R] pIC50 of `COc1ccc(NC(=O)C2=CCCN(C)C2)cc1Nc1ncc(Cl)c(Nc2ccccc2P(C)(C)=O)n1` is > 7.30

For C=CC(=O)Nc1cc(Nc2ncc(Cl)c(Nc3ccccc3P(C)(C)=O)n2)c(OC)cc1OC1CCN(C)C1 (stereo not drawn) on EGFR (Human), P00533 [T790M/L858R], measured pIC50 was > 7.30

Here `C=C(CN1CCN(CCO)CC1)C(=O)Nc1ccc(OC)c(Nc2ncc(Cl)c(Nc3ccccc3P(C)(C)=O)n2)c1` was tested on EGFR (Human), P00533 [T790M/L858R], and its pIC50 came to > 7.30

Summary line: C=CC(=O)Nc1cc(Nc2ncc(Cl)c(Nc3ccccc3P(C)(C)=O)n2)c(OC)cc1N1CCC(N2CCOCC2)C1 (stereo not drawn) , EGFR (Human), P00533 [T790M/L858R], reported pIC50 = > 7.30

Case `C=C(CN1CCN(S(C)(=O)=O)CC1)C(=O)Nc1ccc(OC)c(Nc2ncc(Cl)c(Nc3ccccc3P(C)(C)=O)n2)c1` , EGFR (Human), P00533 [T790M/L858R], pIC50 recorded as > 7.30

Summary line: `C=CC(=O)Nc1cc(Nc2ncc(Cl)c(Nc3ccccc3P(C)(C)=O)n2)c(OC)cc1C#CCN1CCN(C)CC1` , EGFR (Human), P00533 [T790M/L858R], reported pIC50 = > 7.30

Fill in: EGFR (Human), P00533 [T790M/L858R] pIC50 for C=C(CN1CCC(O)C1)C(=O)Nc1ccc(OC)c(Nc2ncc(Cl)c(Nc3ccccc3P(C)(C)=O)n2)c1 (stereo not drawn) = > 7.30

Bench note, EGFR (Human), P00533 [T790M/L858R]: entry `C=CC(=O)Nc1cc(Nc2ncc(Cl)c(Nc3ccccc3P(C)(C)=O)n2)c(OC)cc1OCc1ccncc1` , its pIC50 = > 7.30

Measured pIC50 (EGFR (Human), P00533 [T790M/L858R]), entry `COc1cc(F)c(NC(=O)C#CCCN2CCCCC2)cc1Nc1ncc(Cl)c(Nc2ccccc2P(C)(C)=O)n1` : > 7.30

Entry C=CC(=O)Nc1cc(Nc2ncc(Cl)c(Nc3ccccc3P(C)(C)=O)n2)c(OC)cc1OC1CCCN(C)C1 (stereo not drawn) under EGFR (Human), P00533 [T790M/L858R] had pIC50 of > 7.30

Hey, EGFR (Human), P00533 [T790M/L858R] data for `COc1ccc(NC(=O)/C=C/C(=O)N(C)C)cc1Nc1ncc(Cl)c(Nc2ccccc2P(C)(C)=O)n1` : pIC50 came out at 6.60 to 7.00

Here `C=CC(=O)Nc1cc(Nc2ncc(Cl)c(Nc3ccccc3P(C)(C)=O)n2)c(OC)cc1C#CC(C)(C)N1CCCC1` was tested on EGFR (Human), P00533 [T790M/L858R], and its pIC50 came to > 7.30

EGFR (Human), P00533 [T790M/L858R] data for `COc1cc(N2CCCC2)c(NC(=O)C#CCCN2CCN(C)CC2)cc1Nc1ncc(Cl)c(Nc2ccccc2P(C)(C)=O)n1` ; its pIC50: > 7.30

Observed pIC50 on EGFR (Human), P00533 [T790M/L858R], entry `C=CC(=O)Nc1cc(Nc2ncc(Cl)c(Nc3ccccc3P(C)(C)=O)n2)c(OC)cc1C#CC1(N(C)C)CC1` , equals > 7.30

GET /values?item= `C=CC(=O)Nc1cc(Nc2ncc(Cl)c(Nc3ccccc3P(C)(C)=O)n2)c(OC)cc1C#CCN1CCCC1` &system= EGFR (Human), P00533 [T790M/L858R] returns pIC50: > 7.30

Summary: C=CC(=O)Nc1ccc(OC)c(Nc2ncc(Cl)c(Nc3ccc(OC4CCOC4)cc3P(C)(C)=O)n2)c1 (stereo not drawn) , EGFR (Human), P00533 [T790M/L858R], pIC50 = > 7.30

Cited source for all entries: the Kinase Knowledgebase extract (Sharma et al. 2016)
